Each recorded value in this set is attributed to ChEMBL document CHEMBL1132609.

Exercise: state measured pKi for each of the compounds provided.
Target: Substance-K receptor (Homo sapiens, UniProt P21452)
Sequence (P21452 whole entry): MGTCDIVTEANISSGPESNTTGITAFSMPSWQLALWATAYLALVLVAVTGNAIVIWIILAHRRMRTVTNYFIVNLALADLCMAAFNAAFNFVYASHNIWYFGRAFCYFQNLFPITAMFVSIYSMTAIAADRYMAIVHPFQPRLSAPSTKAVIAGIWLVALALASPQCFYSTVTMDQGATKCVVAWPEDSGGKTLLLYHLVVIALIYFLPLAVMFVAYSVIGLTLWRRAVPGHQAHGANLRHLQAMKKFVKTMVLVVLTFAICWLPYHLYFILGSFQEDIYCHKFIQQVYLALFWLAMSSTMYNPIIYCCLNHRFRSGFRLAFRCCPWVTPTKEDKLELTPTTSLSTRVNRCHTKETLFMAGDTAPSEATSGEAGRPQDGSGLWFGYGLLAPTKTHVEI
Just so you know, pKi here is -log10 of the concentration in molar units; reply with that number alone.

Lab note: need pKi for CCC(NC(=O)c1c(OC)c(-c2ccccc2)nc2ccccc12)c1ccccc1 (single isomer, unassigned) on Substance-K receptor (Homo sapiens, UniProt P21452), anyone have it?
6.48

Param readout = pKi; param system = Substance-K receptor (Homo sapiens, UniProt P21452); param query = CC[C@@H](NC(=O)c1c(CN(C)C)c(-c2ccccc2)nc2ccccc12)c1ccccc1 ; response: value
6.76

# get_value(readout= pKi, system= Substance-K receptor (Homo sapiens, UniProt P21452)) for CCc1c(-c2ccccc2)nc2ccccc2c1C(=O)N[C@H](CC)c1ccccc1
6.50

---

Could you please report measured pKi for the items listed next?
pKi: −log10 of the molar value.

I'm curious: which pKi was measured for CCc1c(-c2ccccc2)nc2ccccc2c1C(=O)N[C@H](CC)c1ccccc1 tested on Substance-P receptor (Homo sapiens)?
< 4.00

I'm curious: which pKi was measured for CC[C@@H](NC(=O)c1c(C)c(-c2ccccc2)nc2ccccc12)c1ccccc1 tested on Substance-P receptor (Homo sapiens)?
< 4.00

Look up pKi with Substance-P receptor (Homo sapiens) for this compound: CC[C@@H](NC(=O)c1c(CN(C)C)c(-c2ccccc2)nc2ccccc12)c1ccccc1
Sequence (P25103 whole entry): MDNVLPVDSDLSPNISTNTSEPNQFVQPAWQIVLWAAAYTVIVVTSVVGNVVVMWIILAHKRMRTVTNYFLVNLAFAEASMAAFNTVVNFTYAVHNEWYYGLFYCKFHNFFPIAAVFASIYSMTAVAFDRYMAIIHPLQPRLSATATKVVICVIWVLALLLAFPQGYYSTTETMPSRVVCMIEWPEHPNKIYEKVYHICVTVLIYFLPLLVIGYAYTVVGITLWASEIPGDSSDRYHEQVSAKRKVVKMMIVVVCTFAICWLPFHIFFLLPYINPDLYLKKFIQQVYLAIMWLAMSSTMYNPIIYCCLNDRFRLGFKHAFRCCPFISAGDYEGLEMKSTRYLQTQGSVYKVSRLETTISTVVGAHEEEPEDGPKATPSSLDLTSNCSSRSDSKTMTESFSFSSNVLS
< 4.00

---

Biological target: UniProt:P29371
Sequence (P29371 whole entry): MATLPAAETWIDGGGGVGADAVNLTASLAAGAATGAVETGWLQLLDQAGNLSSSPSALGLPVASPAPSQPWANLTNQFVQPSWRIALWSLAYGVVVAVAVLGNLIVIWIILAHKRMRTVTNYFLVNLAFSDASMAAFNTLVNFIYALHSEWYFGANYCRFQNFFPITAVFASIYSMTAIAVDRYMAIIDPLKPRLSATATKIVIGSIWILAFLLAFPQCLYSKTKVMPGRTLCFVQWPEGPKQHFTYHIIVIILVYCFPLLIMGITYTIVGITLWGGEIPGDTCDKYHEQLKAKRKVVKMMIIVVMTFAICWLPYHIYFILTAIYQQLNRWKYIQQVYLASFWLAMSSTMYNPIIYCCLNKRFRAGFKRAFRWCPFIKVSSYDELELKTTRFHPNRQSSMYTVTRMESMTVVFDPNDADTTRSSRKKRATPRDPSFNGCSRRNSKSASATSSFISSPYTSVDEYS
OBSERVABLE: pKi
Value format note: pKi is -log10 of concentration (mol/L); just state the number.

Fill in the blank: the reported pKi of CCC(NC(=O)c1c(NC(=O)CN(C)C)c(-c2ccccc2)nc2ccccc12)c1ccccc1 (single isomer, unassigned) is ____.
7.97

# input compound: CCCCCCCC(NC(=O)c1cc(-c2ccccc2)nc2ccccc12)c1ccccc1 (centres undefined) ; wanted: its pKi
5.31

Reported pKi, compound CCC(NC(=O)c1c(Br)c(-c2ccccc2)nc2ccccc12)c1ccccc1 (single isomer, unassigned) : ____
7.43

Fill in: pKi of CC[C@@H](NC(=O)c1c(OCCO)c(-c2ccccc2)nc2ccccc12)c1ccccc1 is ___
8.82

Any idea what its pKi is? The compound is O=C(NC(c1ccccc1)C(F)(F)F)c1cc(-c2ccccc2)nc2ccccc12 (centres undefined)
6.34

What value of pKi has been recorded for this entry: NC(=O)C(NC(=O)c1cc(-c2ccccc2)nc2ccccc12)c1ccccc1 (centres undefined)
6.01

For CCC(NC(=O)c1c(OCCCN(C)C)c(-c2ccccc2)nc2ccccc12)c1ccccc1 (single isomer, unassigned) , what is its reported pKi?
8.07

// query pKi value for entry COC(=O)CC(NC(=O)c1cc(-c2ccccc2)nc2ccccc12)c1ccccc1 (centres undefined)
6.01

Entry O=C(NC(CO)c1ccccc1)c1cc(-c2ccccc2)nc2ccccc12 (centres undefined) : reported pKi = ?
6.68

Field request: pKi | item: CCC(NC(=O)c1c(OCCN)c(-c2ccccc2)nc2ccccc12)c1ccccc1 (single isomer, unassigned)
8.33

Given the entry CCC(NC(=O)c1c(OC)c(-c2ccccc2)nc2ccccc12)c1ccccc1 (single isomer, unassigned) , report its measured pKi.
8.74

For CCC(NC(=O)c1c(-c2ccccc2)c(-c2ccccc2)nc2ccccc12)c1ccccc1 (centres undefined) , what is its reported pKi?
7.34

Using the record for CCCCCCc1c(-c2ccccc2)nc2ccccc2c1C(=O)NC(CC)c1ccccc1 (centres undefined) , report its pKi.
7.26

pKi lookup needed for CC[C@@H](NC(=O)c1c(CN(C)C)c(-c2ccccc2)nc2ccccc12)c1ccccc1 , thanks.
8.66
